These entries and their values trace back to patent US20090162413A1.

# procedure-details: Phase 1 single escalating intravenous dose safety and pharmacokinetics (Example 6)
# Format: in vivo, human
# measurement-context: male, human, whole blood; single IV bolus 500 μg, mean ± SD; read-out: CL (converted)
assay-endpoint: clearance (mL/min)
Number only, in mL/min; omit the unit.

Briefly, clearance measured for "CO[C@H]1C[C@@H]2CC[C@@H](C)[C@@](O)(O2)C(=O)C(=O)N2CCCC[C@H]2C(=O)O[C@H]([C@H](C)C[C@@H]2CC[C@H](n3cnnn3)[C@H](OC)C2)CC(=O)[C@H](C)/C=C(\C)[C@@H](O)[C@@H](OC)C(=O)[C@H](C)C[C@H](C)/C=C/C=C/C=C/1C" : 52.8

###

# procedure-details: Phase 1 single escalating intravenous dose safety and pharmacokinetics (Example 6)
# Format: in vivo, human
# measurement-context: male, human, whole blood; range of means over single IV doses 100-900 μg; read-out: mean volume of distribution
assay-endpoint: Vd

Lookup result for "CO[C@H]1C[C@@H]2CC[C@@H](C)[C@@](O)(O2)C(=O)C(=O)N2CCCC[C@H]2C(=O)O[C@H]([C@H](C)C[C@@H]2CC[C@H](n3cnnn3)[C@H](OC)C2)CC(=O)[C@H](C)/C=C(\C)[C@@H](O)[C@@H](OC)C(=O)[C@H](C)C[C@H](C)/C=C/C=C/C=C/1C" ; measured Vd: 113 to 202 L

###

# procedure-details: Phase 1 single escalating intravenous dose safety and pharmacokinetics (Example 6)
# Type: in vivo, human
# measurement-context: male, human, whole blood; single IV bolus 500 μg, harmonic mean ± pseudo-standard deviation; read-out: t1/2 (converted)
assay-endpoint: half-life (h)
I only need the number, in h, no unit after it.

Data point: "CO[C@H]1C[C@@H]2CC[C@@H](C)[C@@](O)(O2)C(=O)C(=O)N2CCCC[C@H]2C(=O)O[C@H]([C@H](C)C[C@@H]2CC[C@H](n3cnnn3)[C@H](OC)C2)CC(=O)[C@H](C)/C=C(\C)[C@@H](O)[C@@H](OC)C(=O)[C@H](C)C[C@H](C)/C=C/C=C/C=C/1C" ; half-life = 40.2

###

# procedure-details: Phase 1 single escalating intravenous dose safety and pharmacokinetics (Example 6)
# Type: in vivo, human
# measurement-context: male, human, whole blood; single IV bolus 100 μg, mean ± SD; read-out: CL (converted)
assay-endpoint: clearance (mL/min)
Numbers only; they are read as mL/min.

According to the records, this compound "CO[C@H]1C[C@@H]2CC[C@@H](C)[C@@](O)(O2)C(=O)C(=O)N2CCCC[C@H]2C(=O)O[C@H]([C@H](C)C[C@@H]2CC[C@H](n3cnnn3)[C@H](OC)C2)CC(=O)[C@H](C)/C=C(\C)[C@@H](O)[C@@H](OC)C(=O)[C@H](C)C[C@H](C)/C=C/C=C/C=C/1C" displays clearance of 48.3
